Value source: ChEMBL document CHEMBL1157367

Assay: Total clearance in healthy human at 4 g, iv
Assay type: ADME, organism-based
Conditions: in vivo

compound smiles: CCN1CCN(C(=O)N[C@@H](C(=O)N[C@@H]2C(=O)N3[C@@H]2SC(C)(C)[C@@H]3C(=O)O)c2ccccc2)C(=O)C1=O
clearance, mL/min: 195

###

Assay: Clearance in healthy human with lean body mass of 53 kg at 4 g, iv
Type: ADME, organism-based
Settings: in vivo

compound smiles: CCN1CCN(C(=O)N[C@@H](C(=O)N[C@@H]2C(=O)N3[C@@H]2SC(C)(C)[C@@H]3C(=O)O)c2ccccc2)C(=O)C1=O
clearance: 188 mL/min

###

Assay: Mean residence time in cystic fibrosis patient at 4 g, iv
Type: ADME, organism-based
Conditions: human, in vivo
observed property: MRT (min)

compound smiles: CCN1CCN(C(=O)N[C@@H](C(=O)N[C@@H]2C(=O)N3[C@@H]2SC(C)(C)[C@@H]3C(=O)O)c2ccccc2)C(=O)C1=O
endpoint result: 51

###

Assay: Terminal half life in cystic fibrosis patient at 4 g, iv
Type: ADME, organism-based
Conditions: human, in vivo

molecule: CCN1CCN(C(=O)N[C@@H](C(=O)N[C@@H]2C(=O)N3[C@@H]2SC(C)(C)[C@@H]3C(=O)O)c2ccccc2)C(=O)C1=O [PIPERACILLIN]
half-life / min: 41.4

###

Assay: Total clearance in cystic fibrosis patient at 4 g, iv
Format: ADME, organism-based
Settings: human, in vivo
observed property: clearance (mL/min)

molecule: CCN1CCN(C(=O)N[C@@H](C(=O)N[C@@H]2C(=O)N3[C@@H]2SC(C)(C)[C@@H]3C(=O)O)c2ccccc2)C(=O)C1=O [PIPERACILLIN]
endpoint result: 146

###

Assay: Terminal half life in healthy human at 4 g, iv
Format: ADME, organism-based
Conditions: in vivo
observed property: half-life (h)

compound smiles: CCN1CCN(C(=O)N[C@@H](C(=O)N[C@@H]2C(=O)N3[C@@H]2SC(C)(C)[C@@H]3C(=O)O)c2ccccc2)C(=O)C1=O
observed property: half-life
unit text: h
endpoint result: 1.05

###

Assay: Peak drug level in healthy human at 4 g, iv
Format: ADME, organism-based
Details: in vivo, read-out: Drug uptake
observed property: Cmax

compound: CCN1CCN(C(=O)N[C@@H](C(=O)N[C@@H]2C(=O)N3[C@@H]2SC(C)(C)[C@@H]3C(=O)O)c2ccccc2)C(=O)C1=O [PIPERACILLIN]
endpoint result: 446 µg/mL

###

Assay: Volume of distribution at steady state in healthy human with lean body mass of 53 kg at 4 g, iv
Assay type: ADME, organism-based
Conditions: in vivo, read-out: Vdss
observed property: Vd (L)

molecule: CCN1CCN(C(=O)N[C@@H](C(=O)N[C@@H]2C(=O)N3[C@@H]2SC(C)(C)[C@@H]3C(=O)O)c2ccccc2)C(=O)C1=O [PIPERACILLIN]
unit text: L
endpoint result: 10.4

###

Assay: Clearance in cystic fibrosis patient with lean body mass of 53 kg at 4 g, iv
Assay type: ADME, organism-based
Details: human, in vivo

compound smiles: CCN1CCN(C(=O)N[C@@H](C(=O)N[C@@H]2C(=O)N3[C@@H]2SC(C)(C)[C@@H]3C(=O)O)c2ccccc2)C(=O)C1=O
clearance [mL/min]: 188

###

Assay: Volume of distribution at steady state in cystic fibrosis patient with lean body mass of 53 kg at 4 g, iv
Format: ADME, organism-based
Details: human, in vivo, read-out: Vdss

compound smiles: CCN1CCN(C(=O)N[C@@H](C(=O)N[C@@H]2C(=O)N3[C@@H]2SC(C)(C)[C@@H]3C(=O)O)c2ccccc2)C(=O)C1=O
Vd / L: 9.61
